Target: HLA-B*51:01
Experiment: IEDB peptide-MHC binding, purified MHC/competitive/radioactivity; filed as Kd, often an IC50 or EC50 that approximates it; bounds were set here for any values at or beyond the usual limits of such assays
Conditions: source organism: Plasmodium falciparum 3D7
PARAMETER_MEASURED: Kd (nM)
// return numeric value only (unit: nM, not printed)

Find the measured Kd: item TPYAGEPAPF , target or system HLA-B*51:01.
15

====

Target: HLA-A*02:03
Assay: IEDB peptide-MHC binding, purified MHC/competitive/radioactivity; filed as Kd, often an IC50 or EC50 that approximates it; bounds were set here for any values at or beyond the usual limits of such assays
Conditions: source organism: Plasmodium falciparum
PARAMETER_MEASURED: Kd
Report field: quantity (unit follows the number).

Identify the measured Kd of ILSVSSFLFV for HLA-A*02:03.
19 nM
